Every entry's value here was drawn from the supplement of paper PMC4466140.

# system name: CaHse1
# protocol summary: SPOT peptide array binding signal intensity (averaged, normalized) (arbitrary units (background-subtracted, floor 0; scale differs between SH3 domains)); higher = stronger binding of the SH3 domain to the peptide
Parameter threshold = 80. Response is Met when SPOT peptide array binding signal intensity meets or exceeds it, else Not met.

Consider the worked cases shown below.
>>> df
            binder  assigned_class
0  EAEEAAPQLPSRSSA         Not met
1  SRSKPLPLTPNSKYN         Not met
2  NTMKKRPAPPSLPSL             Met

Query :: Form field: SPOT peptide array binding signal intensity at least 80? Entry: `KKEKKPPKIPKKVYT`
Result :: Met

Query :: Form field: SPOT peptide array binding signal intensity at least 80? Entry: `QTREPNEPPPPSPAM`
Result :: Not met

Query :: Form field: SPOT peptide array binding signal intensity at least 80? Entry: `DRIRMFIRFPKFLLE`
Result :: Met
